Provenance of the data: PubChem BioAssay (NCATS)

- tested-target: Cytochrome P450 2C19 (Homo sapiens) (UniProt P33261)
- Sequence (P33261 whole entry, looked up): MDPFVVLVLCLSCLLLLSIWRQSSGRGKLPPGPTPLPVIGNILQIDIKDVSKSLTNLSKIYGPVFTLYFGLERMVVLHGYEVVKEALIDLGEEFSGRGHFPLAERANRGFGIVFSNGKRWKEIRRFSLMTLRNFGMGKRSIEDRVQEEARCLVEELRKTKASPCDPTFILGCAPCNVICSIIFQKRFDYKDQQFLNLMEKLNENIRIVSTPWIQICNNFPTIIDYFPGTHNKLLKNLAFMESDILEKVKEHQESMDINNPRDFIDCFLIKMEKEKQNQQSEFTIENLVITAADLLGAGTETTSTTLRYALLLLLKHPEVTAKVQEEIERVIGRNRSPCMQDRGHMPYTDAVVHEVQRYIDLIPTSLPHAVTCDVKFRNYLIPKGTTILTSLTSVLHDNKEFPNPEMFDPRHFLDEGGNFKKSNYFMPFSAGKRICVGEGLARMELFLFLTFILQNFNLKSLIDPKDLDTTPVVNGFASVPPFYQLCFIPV
- protocol-details: qHTS Assay for Inhibitors and Substrates of Cytochrome P450 2C19 (AID 899); further: nearly all actives have a fitted effect of over 60% in size
- measurement-context: recombinant CYP2C19, luciferin-H EGE luminescence; series mostly up to 11.4 µM
Records with an inconclusive call do not appear. The source made the active and inactive calls. The call rests on the fitted dose curve; in most records, active means well fitted inhibition curve with a large enough effect; inconclusive means small, poorly fitted or top-dose-only effect; inactive means no such curve, though single readings can be large or run the other way.
Possible outcomes: active, inactive

{"compound": "CSc1nc2cc(S(=O)(=O)N3CCCCC3)ccc2s1", "label-value": "active"}
{"compound": "C[C@H]1[C@H](O)[C@@H](C)C=CC=CC=CC=CC=CC=CC=C[C@H](O[C@@H]2O[C@@H](C)[C@H](O)[C@@H](N)[C@@H]2O)C[C@@H]2O[C@](O)(C[C@@H](O)C[C@@H](O)[C@@H](O)CC[C@@H](O)C[C@@H](O)CC(=O)O[C@H]1C)C[C@H](O)[C@H]2C(=O)O", "label-value": "inactive"}
{"compound": "COc1cccc2[nH]c(-c3ccccn3)nc12", "label-value": "active"}
{"compound": "NS(=O)(=O)c1cc(C(=O)O)c(Cl)c([N+](=O)[O-])c1Cl", "label-value": "inactive"}
{"compound": "O=[N+]([O-])c1ccc([C@@H](Nc2ccccc2)c2ccc3cccnc3c2O)cc1", "label-value": "active"}
{"compound": "CN(Cc1cc(C(C)(C)C)cc(Br)c1O)Cc1cc(C(C)(C)C)cc(Br)c1O", "label-value": "active"}
{"compound": "NCCSc1nc2ccccc2s1", "label-value": "active"}
{"compound": "COc1cc(O)c2c(O)c3c(c4c2c1[C@@]1(C4)C(C)=CCCC1(C)C)[C@H](O)[C@@]1(O)CC(=O)C(C(N)=O)=C(O)[C@]1(O)C3=O", "label-value": "active"}
{"compound": "C[C@H](CN(C)C)C(O)(c1ccccc1)c1ccccc1", "label-value": "inactive"}
{"compound": "CC#C[C@@]1(O)CC[C@@H]2[C@@H]3CCC4=CC(=O)CCC4=C3[C@@H](c3ccc(N(C)C)cc3)C[C@]21C", "label-value": "active"}
{"compound": "Cc1ccc(CSC(N)=Nc2ccccc2)cc1C", "label-value": "active"}
{"compound": "Cc1ccc([C@@]2(C)CC/C(=N/N=C3\\CC[C@](C)(c4ccc(C)c(C)c4)c4cc(C)c(C)cc43)c3cc(C)c(C)cc32)cc1C", "label-value": "inactive"}
{"compound": "COc1ccccc1CCn1c(=O)c(-c2ccc(F)cc2)nc2cncnc21", "label-value": "active"}
{"compound": "Nc1cccc2nsnc12", "label-value": "inactive"}
{"compound": "O=C(O)CC[C@@H](C(=O)O)N1C(=O)[C@@H]2[C@@H]3CC[C@H](C3)[C@@H]2C1=O", "label-value": "inactive"}
{"compound": "O=C(c1ccc([N+](=O)[O-])cc1)[C@@H](Br)[C@@H](Br)c1ccnc2ccccc12", "label-value": "active"}
{"compound": "Clc1ccc2c(NC3CCC(N4CCCCC4)CC3)ccnc2c1 (centres undefined)", "label-value": "inactive"}
{"compound": "Cc1c2cccc(Sc3ccccc3)c2c2c3c(cccc13)[S+](c1ccccc1)C2 (centres undefined)", "label-value": "active"}
{"compound": "C[N+](C)([O-])CCC=C1c2ccccc2CCc2ccccc21", "label-value": "active"}
{"compound": "Clc1ccc(CN2CCCN(Cc3ccc(Cl)cc3)C2c2cc3ccccc3c3ccccc23)cc1", "label-value": "active"}
{"compound": "C[C@H](N)C(=O)OC(C)(C)Cc1ccc(Cl)cc1", "label-value": "active"}
{"compound": "O=C1c2ccccc2C(=O)c2c1ccc(C(=O)O)c2-c1ccc2ccccc2c1", "label-value": "active"}
{"compound": "O=C(O)C1CC2(C1)CC(C(=O)O)C2 (centres undefined)", "label-value": "inactive"}
{"compound": "Cn1c(=O)c2c(nc(C(=N)SCC(=O)O)n2C)n(C)c1=O", "label-value": "inactive"}
{"compound": "Nc1nc(SCc2ccccc2)c2ncn(Cc3ccccc3)c2n1", "label-value": "active"}
{"compound": "Cc1cc(=O)oc2cc(O)c(CN(C)CC(=O)O)cc12", "label-value": "inactive"}
{"compound": "COc1cc2c(cc1OC)C(CCN)=NCC2", "label-value": "inactive"}
{"compound": "c1cncc(CNc2ncn[nH]2)c1", "label-value": "inactive"}
{"compound": "Nc1ccn([C@H]2O[C@@H](COP(=O)(O)O)[C@@H](O)[C@H]2O)c(=O)n1", "label-value": "inactive"}
{"compound": "CC1(C)[C@@H]2CC[C@@]1(CS(=O)(=O)Nc1ccccc1)C(=O)C2", "label-value": "active"}
{"compound": "Nc1nc(Sc2ccc([N+](=O)[O-])c3nonc23)c2[nH]cnc2n1", "label-value": "active"}
{"compound": "Cc1cc(O)c(C(C)C)cc1NC(=O)Nc1cccc2ccccc12", "label-value": "active"}
{"compound": "Cc1cc(O)c(-c2cc(O)c(C)cc2O)cc1O", "label-value": "active"}
{"compound": "NC(=O)c1csc(-c2ccc(CO)o2)n1", "label-value": "inactive"}
{"compound": "O=C1c2ccccc2C(=O)c2c(NC3CCCCC3)ccc(Nc3ccc(S(=O)(=O)O)cc3)c21", "label-value": "active"}
{"compound": "Cc1ccc(S(=O)(=O)N2CCC(C(=O)O)(c3ccccc3)CC2)cc1", "label-value": "inactive"}
{"compound": "Clc1ccc(-c2nnc(-c3cccc4ccccc34)o2)cc1Cl", "label-value": "inactive"}
{"compound": "Cc1ccc(S(=O)(=O)N[C@H](CN)C(=O)O)cc1", "label-value": "inactive"}
{"compound": "O=C(O)CSC1=NCCN1", "label-value": "inactive"}
{"compound": "CC1CCN(CC(=O)N2c3ccccc3Sc3cc4ccccc4cc32)CC1", "label-value": "active"}
{"compound": "Cn1c(=O)c2c(nc(N/N=C\\c3ccccc3C(=O)O)n2C)n(C)c1=O", "label-value": "inactive"}
{"compound": "Clc1ccccc1C(Nc1ncccn1)Nc1ncccn1", "label-value": "inactive"}
{"compound": "O=C(O)CCC(=O)N1CCC[C@H]1C(=O)O", "label-value": "inactive"}
{"compound": "Cn1c(=O)c2c(nc(NCCNc3nc4c(c(=O)n(C)c(=O)n4C)n3C)n2C)n(C)c1=O", "label-value": "inactive"}
